molecular target: T1, His-tagged recombinant GSK3β (UniProt P49841 1-420); assay: SPR; ProteOn XPR36; GSK3β immobilised on a GLH sensor chip; peptides in PBS with Tween 20 and 1% DMSO flowed at 100 μl/min; Langmuir model; details: both partners purified
T1 construct: GSK3β, recombinant; source: sf9 insect cells, recombinant, purified
T1 sequence (P49841 whole entry): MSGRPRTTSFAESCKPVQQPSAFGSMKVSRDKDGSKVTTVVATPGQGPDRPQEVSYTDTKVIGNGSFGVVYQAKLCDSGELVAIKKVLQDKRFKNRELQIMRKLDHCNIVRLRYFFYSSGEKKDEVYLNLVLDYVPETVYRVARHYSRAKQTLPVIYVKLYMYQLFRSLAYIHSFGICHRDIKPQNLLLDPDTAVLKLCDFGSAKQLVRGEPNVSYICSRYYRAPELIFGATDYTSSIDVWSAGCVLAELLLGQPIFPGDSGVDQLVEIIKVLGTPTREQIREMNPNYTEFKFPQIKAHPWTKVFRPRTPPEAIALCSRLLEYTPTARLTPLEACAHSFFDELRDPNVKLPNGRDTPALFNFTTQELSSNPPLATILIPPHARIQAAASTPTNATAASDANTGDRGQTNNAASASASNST
READOUT_LABEL: Kd (µM)

In [3]: df
Out[3]:
                                     binder  unit  quantitative_readout
0  VEPQKFAEELIHRLEAVQR (Axin1, residues 383-401; source: synthetic peptide) [19-mer wild type Axin peptide]    µM                  11.9
